Tested on: LOX IMVI
Experiment: NCI tumour cell line growth inhibition, 48 h
The source made the active and inactive calls. Rule as the data show it: active = GI50 up to about 1.1 µM and inactive = higher.
What GI50 was measured for each of the following?

Challenge: Give its GI50 value. Item: CSC(=S)NNC(=O)c1ccncc1
Response given: 16.8 µM (inactive)

Challenge: Give its GI50 value. Item: Cc1cc(O)c2c(c1)C(=O)C=C(Br)C2=O
Response given: 12.8 µM (inactive)

Challenge: Give its GI50 value. Item: O=C1CCCC/C1=C\c1ccc(Cl)c(Cl)c1
Response given: 18 µM (inactive)

Challenge: Give its GI50 value. Item: CCCCCCCCCCCCC/C=C/[C@@H](O)[C@H](COC1OC(CO)C(OC2OC(CO)C(O)C(OC3(C(=O)O)CC(O)C(NC(C)=O)C(C(O)C(O)CO)O3)C2O)C(O)C1O)N=[N+]=[N-] (some centres undefined)
Response given: 20.2 µM (inactive)

Challenge: Give its GI50 value. Item: CC(=O)O[C@H]1C=CC23OC(=O)[C@]1(C)[C@H]2[C@H](C(=O)O)C12CC(=O)[C@@](CO)(CC[C@H]13)C2
Response given: > 100 µM (inactive)

Challenge: Give its GI50 value. Item: CN(C)c1ccc(C(=C(c2ccc(N(C)C)cc2)c2ccc(N(C)C)cc2)c2ccc(N(C)C)cc2)cc1
Response given: 13.5 µM (inactive)

Challenge: Give its GI50 value. Item: N/C(=N\Nc1ccc(S(N)(=O)=O)cc1)c1cnccn1
Response given: > 100 µM (inactive)

Challenge: Give its GI50 value. Item: COc1ccc(C2SCC(=O)N2c2ccc(-n3c(-c4ccccc4)nc4ccccc4c3=O)cc2)cc1OC (centres undefined)
Response given: > 100 µM (inactive)

Challenge: Give its GI50 value. Item: Cn1c(=O)c(-c2ccccc2)c(O)c2ccccc21
Response given: > 100 µM (inactive)
